System: Hepatotoxicity
Test: FDA HLAED, liver enzyme composite activity
Settings: human, Liver
ASSAY ENDPOINT: Composite Activity - Score

Please review the entries below; each comes with its answer.
| COMPOUND | Composite Activity - Score |
| --- | --- |
| Clc1ccccc1CN1CCc2sccc2C1 | Inactive |
| O=P1(N(CCCl)CCCl)NCCCO1 (centres undefined) [CYCLOPHOSPHAMIDE ANHYDROUS] | Active |
| Cn1cnc([N+](=O)[O-])c1Sc1ncnc2nc[nH]c12 | Active |
| CCOC(=O)N1CCC(=C2c3ccc(Cl)cc3CCc3cccnc32)CC1 | Inactive |
| C[C@](N)(Cc1ccc(O)cc1)C(=O)O | Inactive |

Task: Send back Hepatotoxicity Composite Activity - Score of COc1ccc2cc([C@H](C)C(=O)O)ccc2c1 only.
Output: Inactive

Task: Send back Hepatotoxicity Composite Activity - Score of CNCCCC12CCC(c3ccccc31)c1ccccc12 only.
Output: Inactive

Task: Send back Hepatotoxicity Composite Activity - Score of COc1cc([C@@H]2c3cc4c(cc3[C@@H](O[C@@H]3O[C@@H]5CO[C@@H](C)O[C@H]5[C@H](O)[C@H]3O)[C@H]3COC(=O)[C@H]23)OCO4)cc(OC)c1O [ETOPOSIDE] only.
Output: Inactive

Task: Send back Hepatotoxicity Composite Activity - Score of CN1CCC[C@H]1c1cccnc1 only.
Output: Inactive

---

Tested on: Hepatotoxicity
Experiment: FDA HLAED, lactate dehydrogenase (LDH) increase
Details: human
ASSAY ENDPOINT: LDH Increase - Number of Reports

Please review the entries below; each comes with its answer.
| COMPOUND | TEST SYSTEM | LDH Increase - Number of Reports |
| --- | --- | --- |
| CN(C)c1nc(N(C)C)nc(N(C)C)n1 | Hepatotoxicity | < 4 |
| C[C@]12CC[C@@H]3c4ccc(O)cc4CC[C@H]3[C@@H]1CC[C@@H]2OC(=O)CCC1CCCC1 [ESTRADIOL CYPIONATE] | Hepatotoxicity | >= 4 |
| CC1(C)S[C@@H]2[C@H](NC(=O)[C@H](N)c3ccc(O)cc3)C(=O)N2[C@H]1C(=O)O | Hepatotoxicity | < 4 |
| Cn1nnnc1SCC1=C(C(=O)[O-])N2C(=O)[C@@H](NC(=O)[C@H](OC=O)c3ccccc3)[C@H]2SC1.[Na+] [CEFAMANDOLE NAFATE] | Hepatotoxicity | < 4 |
| CC(C)(C)NC[C@H](O)COc1nsnc1N1CCOCC1 | Hepatotoxicity | < 4 |

Task: Indicate the recorded LDH Increase - Number of Reports value for this compound: CN(C/C=C/C#CC(C)(C)C)Cc1cccc2ccccc12
Output: >= 4

Task: Indicate the recorded LDH Increase - Number of Reports value for this compound: Cc1ccc(C)c(OCCCC(C)(C)C(=O)O)c1
Output: < 4

Task: Indicate the recorded LDH Increase - Number of Reports value for this compound: CC(N)C12CC3CC(CC(C3)C1)C2 (centres undefined)
Output: < 4

Task: Indicate the recorded LDH Increase - Number of Reports value for this compound: Clc1ccc(CCC(Cn2ccnc2)Sc2c(Cl)cccc2Cl)cc1 (centres undefined)
Output: < 4

---

System: Hepatotoxicity
Assay: FDA HLAED, serum glutamic oxaloacetic transaminase (SGOT) increase
Conditions: human
ASSAY ENDPOINT: SGOT Increase - Activity Score

Please review the entries below; each comes with its answer.
| COMPOUND | TEST SYSTEM | ASSAY ENDPOINT | VAL |
| --- | --- | --- | --- |
| CCCC(=O)Nc1ccc(OCC(O)CNC(C)C)c(C(C)=O)c1 (configuration not stated) | Hepatotoxicity | SGOT Increase - Activity Score | Inactive |
| CN1C2CCCC1CC(NC(=O)c1nn(C)c3ccccc13)C2 (configuration not stated) | Hepatotoxicity | SGOT Increase - Activity Score | Inactive |
| CCCCCCCCCC(=O)CC(=O)O[C@H]1CC[C@H]2[C@@H]3CCC4=CC(=O)CC[C@]4(C)[C@H]3CC[C@]12C [TESTOSTERONE KETOLAURATE] | Hepatotoxicity | SGOT Increase - Activity Score | Inactive |
| CNS(=O)(=O)Cc1ccc2[nH]cc(CCN(C)C)c2c1 | Hepatotoxicity | SGOT Increase - Activity Score | Inactive |
| O=C1c2c(O)ccc(O)c2C(=O)c2c(NCCNCCO)ccc(NCCNCCO)c21 | Hepatotoxicity | SGOT Increase - Activity Score | Active |
| COc1cc2nc(N3CCN(C(=O)C4COc5ccccc5O4)CC3)nc(N)c2cc1OC (configuration not stated) | Hepatotoxicity | SGOT Increase - Activity Score | Inactive |
| Nc1cc(Cl)c(N=C2NCCN2)c(Cl)c1 | Hepatotoxicity | SGOT Increase - Activity Score | Inactive |
| CC(=O)N1CCN(c2ccc(OCC3COC(Cn4ccnc4)(c4ccc(Cl)cc4Cl)O3)cc2)CC1 (configuration not stated) | Hepatotoxicity | SGOT Increase - Activity Score | Active |
| CN(Cc1cnc2nc(N)nc(N)c2n1)c1ccc(C(=O)N[C@@H](CCC(=O)O)C(=O)O)cc1 [METHOTREXATE] | Hepatotoxicity | SGOT Increase - Activity Score | Active |
| Nc1ccn([C@@H]2CS[C@H](CO)O2)c(=O)n1 | Hepatotoxicity | SGOT Increase - Activity Score | Active |

Task: Send back Hepatotoxicity SGOT Increase - Activity Score of CC[N+](C)(C)Cc1ccccc1Br.Cc1ccc(S(=O)(=O)[O-])cc1 [BRETYLIUM TOSYLATE] only.
Output: Inactive

Task: Send back Hepatotoxicity SGOT Increase - Activity Score of OC(Cn1cncn1)(Cn1cncn1)c1ccc(F)cc1F only.
Output: Active

The measurements presented in this section are drawn from ChEMBL document CHEMBL1697781.
